pKd for assorted binders
- testedOn: T1, EsCas13d, nuclease-dead (Eubacterium siraeum, UniProt B0MS50, R295A;H300A;R849A;H854A)
- T1 sequence: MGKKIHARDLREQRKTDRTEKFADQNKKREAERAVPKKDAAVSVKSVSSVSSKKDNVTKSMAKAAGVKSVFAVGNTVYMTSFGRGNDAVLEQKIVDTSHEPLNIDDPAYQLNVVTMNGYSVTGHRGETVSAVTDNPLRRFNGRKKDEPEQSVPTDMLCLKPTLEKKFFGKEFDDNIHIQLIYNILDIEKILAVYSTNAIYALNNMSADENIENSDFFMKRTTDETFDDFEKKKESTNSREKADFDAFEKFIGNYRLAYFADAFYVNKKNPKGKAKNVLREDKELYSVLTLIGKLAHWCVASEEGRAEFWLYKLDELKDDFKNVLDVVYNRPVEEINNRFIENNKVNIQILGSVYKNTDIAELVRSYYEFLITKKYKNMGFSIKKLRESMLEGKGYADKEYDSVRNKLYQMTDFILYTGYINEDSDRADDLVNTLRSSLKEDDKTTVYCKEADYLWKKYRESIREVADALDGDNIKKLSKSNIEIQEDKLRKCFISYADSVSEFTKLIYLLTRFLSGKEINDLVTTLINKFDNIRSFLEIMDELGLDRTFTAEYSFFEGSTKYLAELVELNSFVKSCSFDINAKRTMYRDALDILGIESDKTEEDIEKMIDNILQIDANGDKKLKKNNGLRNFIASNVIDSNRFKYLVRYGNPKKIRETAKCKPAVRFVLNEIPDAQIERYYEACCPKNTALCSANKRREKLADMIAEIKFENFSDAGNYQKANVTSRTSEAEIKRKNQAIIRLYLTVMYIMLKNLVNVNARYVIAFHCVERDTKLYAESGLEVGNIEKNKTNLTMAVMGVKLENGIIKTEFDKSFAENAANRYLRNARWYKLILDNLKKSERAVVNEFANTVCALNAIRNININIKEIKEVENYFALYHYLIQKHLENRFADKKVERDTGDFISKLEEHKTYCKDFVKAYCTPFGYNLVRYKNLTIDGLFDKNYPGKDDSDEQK
- experimentalProtocol: crRNA (strand 1, pre-loaded); Mg2+; 40 mM Tris-HCl pH 7.5, 150 mM NaCl, 6 mM MgCl2, 1 mM DTT, 0.1% Tween-20, 0.2 mg/ml BSA; 25 C; 10 min per concentration, then washed
- measurementSetup: tags: His6-TwinStrep-SUMO cleaved; N-terminal SNAP kept (SNAP-Surface 488); label: 3' end held by stalled T7 RNA polymerase
Quick note: pKd values are minus log10 of concentrations in mol/L.

target 1 C6U,A20U (mixed) RNA 1: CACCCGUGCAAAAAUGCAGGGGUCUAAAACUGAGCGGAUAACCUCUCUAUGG RNA 2: GGGAAUGGAUCCACAUCUACGAAUUCGUACCUUAGAGAGGUUAUCUGCUCACCGAGAUCGGAAGAGCACACGU yielded pKd of 7.46

target 1 MT 5'PFS GUU 3'PFS UGC (mixed) RNA 1: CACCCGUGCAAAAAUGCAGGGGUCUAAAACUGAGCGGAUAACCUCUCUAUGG RNA 2: GGGAAUGGAUCCACAUCUACGAAUUCGUUCCAUAGAGAGGUUAUCCGCUCAUGCAGAUCGGAAGAGCACACGU yielded pKd of 7.81

target 3 insG 3' of 9,insU 3' of 3 (mixed) RNA 1: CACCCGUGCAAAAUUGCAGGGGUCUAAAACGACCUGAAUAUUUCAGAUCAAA RNA 2: GGGAAUGGAUCCACAUCUACGAAUUCGUUUUUGAUCUGAAAUAGUUCAGGUUCUGCAGAUCGGAAGAGCACACGU yielded pKd of 7.36

Now examine the next entry.
target 1 insA 3' of 3 (mixed) RNA 1: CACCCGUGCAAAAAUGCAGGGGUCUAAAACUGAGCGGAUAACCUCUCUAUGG RNA 2: GGGAAUGGAUCCACAUCUACGAAUUCGUACCAUAGAGAGGUUAUCCGCUACACCGAGAUCGGAAGAGCACACGU yielded pKd of 8.06
